# METHOD SUMMARY: Metabolic stability in human liver microsomes assessed as half life measured for 60 mins
# Assay type: ADME, Microsome
OBSERVABLE: half-life (h)
Numbers only here, please. The scale is h.

Endpoint output: half-life of O=C(NCCCCCCNC(=O)c1ccc2c(c1)C1(OC2=O)c2ccc(O)cc2Oc2cc(O)ccc21)c1ccc(CNc2ncnc3c2ncn3[C@@H]2O[C@H](COP(=O)(O)CP(=O)(O)O)[C@@H](O)[C@H]2O)cc1 . Value?
1.93

----------
# ASSAY SYSTEM: 5'-nucleotidase (Rattus norvegicus)
# Sequence (P21588 whole entry): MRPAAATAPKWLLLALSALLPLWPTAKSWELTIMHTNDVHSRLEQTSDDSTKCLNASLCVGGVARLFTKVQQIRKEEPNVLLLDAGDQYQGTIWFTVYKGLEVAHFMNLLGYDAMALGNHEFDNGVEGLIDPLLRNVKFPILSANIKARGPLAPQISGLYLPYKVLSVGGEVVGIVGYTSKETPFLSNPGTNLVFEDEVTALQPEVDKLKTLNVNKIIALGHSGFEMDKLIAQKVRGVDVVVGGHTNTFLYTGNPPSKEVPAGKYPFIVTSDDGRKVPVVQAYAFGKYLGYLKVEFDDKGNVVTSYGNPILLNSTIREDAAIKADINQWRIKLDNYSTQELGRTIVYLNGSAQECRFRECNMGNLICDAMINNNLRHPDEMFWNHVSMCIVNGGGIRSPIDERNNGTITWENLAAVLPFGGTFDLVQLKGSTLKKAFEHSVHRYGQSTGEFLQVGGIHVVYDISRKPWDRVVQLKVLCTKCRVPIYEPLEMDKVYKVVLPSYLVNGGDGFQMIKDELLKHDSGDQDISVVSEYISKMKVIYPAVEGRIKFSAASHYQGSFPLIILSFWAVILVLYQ
# METHOD SUMMARY: Inhibition of recombinant rat CD73 expressed in Sf9 cells using [2,8-3H]-AMP as substrate incubated for 25 mins by scintillation counting method
OBSERVABLE: pKi
A value of pKi is the negative decimal logarithm of a concentration given in moles per litre.

Form field - read-out: pKi; system: 5'-nucleotidase (Rattus norvegicus); submitted item: O=C(NCCCCCCNC(=O)c1ccc2c(c1)C1(OC2=O)c2ccc(O)cc2Oc2cc(O)ccc21)c1ccc(CNc2ncnc3c2ncn3[C@@H]2O[C@H](COP(=O)(O)CP(=O)(O)O)[C@@H](O)[C@H]2O)cc1
7.59
